From: ChEMBL document CHEMBL1123370

Target: Delta-type opioid receptor (Rattus norvegicus)
Sequence (P33533 whole entry): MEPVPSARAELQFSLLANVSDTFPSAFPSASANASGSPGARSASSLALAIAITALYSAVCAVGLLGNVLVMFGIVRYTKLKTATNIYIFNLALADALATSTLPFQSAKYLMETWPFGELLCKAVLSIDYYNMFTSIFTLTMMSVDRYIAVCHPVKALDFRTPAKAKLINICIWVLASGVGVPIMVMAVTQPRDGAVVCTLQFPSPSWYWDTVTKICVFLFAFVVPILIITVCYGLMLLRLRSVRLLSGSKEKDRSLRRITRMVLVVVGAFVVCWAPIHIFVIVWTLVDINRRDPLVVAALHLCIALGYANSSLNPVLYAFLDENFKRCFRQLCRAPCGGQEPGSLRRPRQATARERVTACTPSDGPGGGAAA
Assay: Inhibition of [3H]-DPDPE binding to Opioid receptor delta 1 of rat brain membranes
Endpoint: IC50 (µM)
Write the value in µM as a bare number.

[
  {
    "Compound string": "C[C@@H](O)[C@H](NC(=O)[C@H]1NC(=O)CNC(=O)[C@H](CCCCN)NC(=O)[C@@H](Cc2c[nH]c3ccccc23)NC(=O)[C@H](Cc2ccc(O)cc2)NC(=O)[C@@H](NC(=O)[C@H](N)Cc2ccccc2)CSSC1(C)C)C(N)=O",
    "Experimental system": "Delta-type opioid receptor (Rattus norvegicus)",
    "IC50 [µM]": 58
  }
]

// next entry
query: Requested read-out: IC50. Entry: C[C@@H](O)[C@H](NC(=O)[C@@H]1CSSC(C)(C)[C@H](NC(=O)[C@H](N)c2ccccc2)C(=O)N[C@@H](Cc2ccccc2)C(=O)N[C@H](Cc2c[nH]c3ccccc23)C(=O)N[C@@H](CCCCN)C(=O)N[C@@H]([C@@H](C)O)C(=O)N1)C(=O)O
result: 32

---

Biological target: Opioid receptors; mu & delta (Rattus norvegicus) (UniProt P33533+P33535)
Sequence (P33535 whole entry, looked up, one chain of several): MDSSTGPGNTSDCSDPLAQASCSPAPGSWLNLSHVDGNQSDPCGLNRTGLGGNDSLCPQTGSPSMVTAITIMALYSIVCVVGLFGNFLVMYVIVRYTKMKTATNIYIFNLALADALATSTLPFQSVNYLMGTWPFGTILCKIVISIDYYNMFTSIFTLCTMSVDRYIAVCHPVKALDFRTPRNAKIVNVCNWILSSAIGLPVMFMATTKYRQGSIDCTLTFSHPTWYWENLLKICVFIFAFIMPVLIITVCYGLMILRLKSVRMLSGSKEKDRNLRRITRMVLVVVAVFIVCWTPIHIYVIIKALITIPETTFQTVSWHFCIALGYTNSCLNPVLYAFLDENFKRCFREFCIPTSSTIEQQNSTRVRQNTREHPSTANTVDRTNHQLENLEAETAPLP
Assay: Ratio of receptor binding inhibitory concentrations against mu and delta opioid receptors from rat brain as IC50 (vs [3H]-DPDPE) / IC50 (vs [3H]naloxone)
Endpoint: Ratio
No unit in the answer, please; the number alone is enough.

query: Requested read-out: Ratio. Entry: C[C@@H](O)[C@H](NC(=O)[C@@H]1NC(=O)[C@@H]([C@@H](C)O)NC(=O)[C@H](CCCCN)NC(=O)[C@@H](Cc2c[nH]c3ccccc23)NC(=O)[C@H](Cc2ccc(O)cc2)NC(=O)[C@@H](NC(=O)[C@H](N)c2ccccc2)CSSC1(C)C)C(N)=O
result: 8

query: Requested read-out: Ratio. Entry: C[C@@H](O)[C@H](NC(=O)[C@@H]1NC(=O)CNC(=O)[C@H](CCCCN)NC(=O)[C@@H](Cc2c[nH]c3ccccc23)NC(=O)[C@H](Cc2ccc(O)cc2)NC(=O)[C@@H](NC(=O)[C@H](N)Cc2ccccc2)CSSC1(C)C)C(N)=O
result: 110

query: Requested read-out: Ratio. Entry: C[C@@H](O)[C@H](NC(=O)[C@@H]1NC(=O)[C@@H]([C@@H](C)O)NC(=O)[C@H](CCCN=C(N)N)NC(=O)[C@@H](Cc2c[nH]c3ccccc23)NC(=O)[C@H](Cc2ccc(O)cc2)NC(=O)[C@@H](NC(=O)[C@H](N)Cc2ccccc2)CSSC1(C)C)C(N)=O
result: 1300

query: Requested read-out: Ratio. Entry: C[C@@H](O)[C@H](NC(=O)[C@H]1CSSC[C@H](NC(=O)[C@H](N)Cc2ccc(O)cc2)C(=O)N[C@@H](Cc2ccc(O)cc2)C(=O)N[C@H](Cc2c[nH]c3ccccc23)C(=O)N[C@@H](CCCCN)C(=O)N[C@H]([C@@H](C)O)C(=O)N1)C(=O)O
result: 3

query: Requested read-out: Ratio. Entry: C[C@@H](O)[C@H](NC(=O)[C@@H]1NC(=O)[C@@H]([C@@H](C)O)NC(=O)[C@H](CCCCN)NC(=O)[C@@H](Cc2c[nH]c3ccccc23)NC(=O)[C@H](Cc2ccc(O)cc2)NC(=O)[C@@H](NC(=O)[C@H](N)Cc2ccccc2)CSSC1(C)C)C(N)=O
result: 2250
